- TARGET_OF_ASSAY: NEDD8-conjugating enzyme Ubc12 (Homo sapiens) + NEDD8-activating enzyme E1 regulatory subunit (Homo sapiens) (UniProt P61081+Q13564)
- Sequence (P61081 whole entry, looked up): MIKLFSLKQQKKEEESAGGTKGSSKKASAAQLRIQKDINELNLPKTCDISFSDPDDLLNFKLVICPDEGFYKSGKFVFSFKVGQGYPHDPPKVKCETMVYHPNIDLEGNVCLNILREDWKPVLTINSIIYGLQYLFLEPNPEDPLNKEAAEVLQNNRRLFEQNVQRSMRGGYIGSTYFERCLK
- Sequence (Q13564 whole entry, looked up): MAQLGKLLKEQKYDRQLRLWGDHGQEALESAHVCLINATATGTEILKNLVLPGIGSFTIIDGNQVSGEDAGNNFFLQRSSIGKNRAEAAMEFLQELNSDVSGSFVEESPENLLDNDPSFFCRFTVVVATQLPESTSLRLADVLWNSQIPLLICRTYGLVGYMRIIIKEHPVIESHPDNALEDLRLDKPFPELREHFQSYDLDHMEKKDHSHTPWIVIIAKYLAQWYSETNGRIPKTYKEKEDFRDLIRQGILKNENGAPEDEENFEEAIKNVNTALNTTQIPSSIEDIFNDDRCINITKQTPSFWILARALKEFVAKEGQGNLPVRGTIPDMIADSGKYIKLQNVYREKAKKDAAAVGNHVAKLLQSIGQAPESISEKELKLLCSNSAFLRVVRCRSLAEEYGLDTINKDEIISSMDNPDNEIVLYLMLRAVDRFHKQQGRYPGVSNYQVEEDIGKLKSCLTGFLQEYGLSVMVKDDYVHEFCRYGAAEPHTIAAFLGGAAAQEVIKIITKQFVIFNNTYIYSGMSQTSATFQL
- MEASUREMENT_PROTOCOL: inhibitors of CUL1 neddylation, potency, dose response, biochemical, TR-FRET (AID 652247)
- RUN_PARAMETERS: in vitro CUL1 neddylation
Activity calls are given as the source filed them. The rule behind the calls is not given here.
Possible outcomes: y (active), n (inactive)

[
  {
    "COMPOUND": "COc1cc(/C=N/Nc2nc3ccccc3[nH]2)cc(Br)c1OCC(=O)N(C)C",
    "ANSWER_LABEL": "n"
  },
  {
    "COMPOUND": "Oc1ccc(Br)cc1C=Nc1ccc2c3c(cccc13)CC2",
    "ANSWER_LABEL": "y"
  },
  {
    "COMPOUND": "CCCCn1c(O)c(/C=N/NC(=O)c2ccncc2)c(=O)[nH]c1=S",
    "ANSWER_LABEL": "n"
  },
  {
    "COMPOUND": "COc1cc(C=NNC(=O)c2ccc(NS(=O)(=O)c3cccs3)cc2)cc(Br)c1O",
    "ANSWER_LABEL": "n"
  },
  {
    "COMPOUND": "CCc1ccc(-c2cnc3nc[nH]c(=O)c3n2)cc1",
    "ANSWER_LABEL": "y"
  },
  {
    "COMPOUND": "COc1ccc(CCNc2oc(-c3ccco3)nc2C#N)cc1",
    "ANSWER_LABEL": "n"
  },
  {
    "COMPOUND": "CC(C)(C)c1ccc(/C=C2\\CCn3c2nc2cc(C(=O)O)ccc2c3=O)cc1",
    "ANSWER_LABEL": "n"
  },
  {
    "COMPOUND": "CCCCN(C)C(=O)c1cc2cc3ccc(OC)cc3nc2o1",
    "ANSWER_LABEL": "n"
  },
  {
    "COMPOUND": "CC(=O)Nc1ccc(NC(=O)c2cc(-c3ccc(C)cc3O)n[nH]2)cc1",
    "ANSWER_LABEL": "y"
  },
  {
    "COMPOUND": "Cc1ccc2cc3cc(C(=O)NCCN4CCOCC4)oc3nc2c1",
    "ANSWER_LABEL": "y"
  },
  {
    "COMPOUND": "S=c1[nH]c2nc(Cl)c(Cl)nc2[nH]1",
    "ANSWER_LABEL": "n"
  },
  {
    "COMPOUND": "CN(C)c1ccc(/C=N/NC(=O)COc2ccccc2)cc1",
    "ANSWER_LABEL": "n"
  },
  {
    "COMPOUND": "COc1ccc(-c2cc(C(=O)N(C)CC(=O)Nc3ccccc3Cl)c3ccccc3n2)cc1OC",
    "ANSWER_LABEL": "n"
  },
  {
    "COMPOUND": "OC1CCCN(Cc2c3ccccc3cc3ccccc23)C1 (stereo not drawn)",
    "ANSWER_LABEL": "n"
  },
  {
    "COMPOUND": "CCNC(=O)/C(C#N)=C/c1c(N2CCN(c3ccccc3)CC2)nc2ccccn2c1=O",
    "ANSWER_LABEL": "n"
  },
  {
    "COMPOUND": "Cc1ccc2cc3cc(C(=O)NCCCN4CCc5ccccc5C4)oc3nc2c1",
    "ANSWER_LABEL": "y"
  },
  {
    "COMPOUND": "Nc1cccc2c(=O)[nH][nH]c(=O)c12",
    "ANSWER_LABEL": "n"
  },
  {
    "COMPOUND": "Nc1nnc(-c2cc3ccccc3oc2=O)s1",
    "ANSWER_LABEL": "n"
  },
  {
    "COMPOUND": "COC(=O)c1sc2nc3c(cc2c1N)COC(C)(C)C3",
    "ANSWER_LABEL": "n"
  },
  {
    "COMPOUND": "O=C(O)c1ccc2c(=O)n3c(nc2c1)/C(=C/c1ccc(OC(F)F)cc1OC(F)F)CC3",
    "ANSWER_LABEL": "n"
  },
  {
    "COMPOUND": "CC1CCN(C(=O)Nc2ccc3nsnc3c2)CC1",
    "ANSWER_LABEL": "n"
  },
  {
    "COMPOUND": "CCc1c(C)c2ccc(OC(C)C(=O)NC(Cc3c[nH]c4ccc(O)cc34)C(=O)O)c(C)c2oc1=O (stereo not drawn)",
    "ANSWER_LABEL": "n"
  },
  {
    "COMPOUND": "Cc1ccc(C(=O)N/C(=C\\c2cccs2)c2nc3ccccc3[nH]2)cc1",
    "ANSWER_LABEL": "n"
  }
]

----------
- TARGET_OF_ASSAY: NEDD8-conjugating enzyme Ubc12 (Homo sapiens) + NEDD8-activating enzyme E1 regulatory subunit (Homo sapiens) (UniProt P61081+Q13564)
- MEASUREMENT_PROTOCOL: inhibitors of CUL1 neddylation, potency, dose response, biochemical, TR-FRET (AID 652247)
- RUN_PARAMETERS: in vitro CUL1 neddylation
Calls of active or inactive are those of the source. No rule for the calls is given here.
Possible outcomes: active, inactive

[
  {
    "COMPOUND": "CCN(CC)c1ccc(/C=N/NC(=O)CNC(=O)c2cccs2)cc1",
    "ANSWER_LABEL": "active"
  },
  {
    "COMPOUND": "O=C(O)Cn1c(=O)c(-c2ccccc2)nc2ccccc21",
    "ANSWER_LABEL": "inactive"
  },
  {
    "COMPOUND": "Nc1c2c(=O)oc(-c3ccccc3)cc2nn1-c1ccccc1",
    "ANSWER_LABEL": "inactive"
  },
  {
    "COMPOUND": "Cc1cc(=O)oc2cc(NC(=O)CN3C(=O)NC(C)(c4ccccc4)C3=O)ccc12 (stereo not drawn)",
    "ANSWER_LABEL": "inactive"
  },
  {
    "COMPOUND": "Cc1ccc2nc(-c3ccc(NC(=O)COCC(=O)O)cc3)sc2c1",
    "ANSWER_LABEL": "inactive"
  },
  {
    "COMPOUND": "O=C(NCCc1ccc(Cl)cc1Cl)C1=CC=CN2CCS(=O)(=O)N=C12",
    "ANSWER_LABEL": "inactive"
  },
  {
    "COMPOUND": "COCCNC(=O)CSc1ccc(-c2nc3ccccc3[nH]2)cn1",
    "ANSWER_LABEL": "inactive"
  },
  {
    "COMPOUND": "COC(=O)C1C(O)=C(C=Nc2cccc3ccccc23)C(=O)CC1(C)C (stereo not drawn)",
    "ANSWER_LABEL": "inactive"
  },
  {
    "COMPOUND": "CCOc1ccc(NC(=O)COC(=O)c2ccc3ncsc3c2)cc1OCC",
    "ANSWER_LABEL": "inactive"
  },
  {
    "COMPOUND": "O=c1oc2ccccc2cc1-c1cn2cccnc2n1",
    "ANSWER_LABEL": "inactive"
  },
  {
    "COMPOUND": "CC(=CCOc1ccc2ccc(=O)oc2c1)C1=CC(=O)C(C)(C)O1",
    "ANSWER_LABEL": "inactive"
  },
  {
    "COMPOUND": "CC1(C)CC(NC(=O)COc2ccc3c4c(c(=O)oc3c2)CCCC4)CC(C)(C)N1",
    "ANSWER_LABEL": "inactive"
  },
  {
    "COMPOUND": "COc1ccc(C(=O)n2cc(C(=O)c3cc(C)ccc3O)cn2)cc1OC",
    "ANSWER_LABEL": "inactive"
  },
  {
    "COMPOUND": "C=CCNC(=O)c1ccc2c3n(nc2c1)-c1ccc(C)cc1CO3",
    "ANSWER_LABEL": "inactive"
  },
  {
    "COMPOUND": "CCN(CC)c1ccc(/C=N/NC(=O)C2CC2)cc1",
    "ANSWER_LABEL": "inactive"
  },
  {
    "COMPOUND": "Cn1nc(/C=C/c2ccccc2)ccc1=O",
    "ANSWER_LABEL": "inactive"
  },
  {
    "COMPOUND": "N#Cc1c2c(c(NCCOCCO)n3c1nc1ccccc13)CCCC2",
    "ANSWER_LABEL": "inactive"
  },
  {
    "COMPOUND": "NNC(=O)c1ccc(CSc2cccc3cccnc23)cc1",
    "ANSWER_LABEL": "inactive"
  },
  {
    "COMPOUND": "COc1ccc(OC)c(C=NNC(=O)c2ccc(NS(=O)(=O)c3cccs3)cc2)c1",
    "ANSWER_LABEL": "inactive"
  },
  {
    "COMPOUND": "CC(=O)OCCc1c2ccccc2c(CCCN(C)C)c2ccccc12",
    "ANSWER_LABEL": "active"
  },
  {
    "COMPOUND": "COCCNc1c2c(c(C#N)c3nc4ccccc4n13)CCCC2",
    "ANSWER_LABEL": "inactive"
  },
  {
    "COMPOUND": "O=C(O)c1sc2cc(C(F)(F)F)cnc2c1-c1cccs1",
    "ANSWER_LABEL": "inactive"
  },
  {
    "COMPOUND": "CS(=O)(=O)c1ccc2nc(NC(=O)c3ccc(Cl)nc3)sc2c1",
    "ANSWER_LABEL": "active"
  }
]
